# experimental.target: EPHB2 (UniProt P29323)
# Sequence (P29323 whole entry, looked up): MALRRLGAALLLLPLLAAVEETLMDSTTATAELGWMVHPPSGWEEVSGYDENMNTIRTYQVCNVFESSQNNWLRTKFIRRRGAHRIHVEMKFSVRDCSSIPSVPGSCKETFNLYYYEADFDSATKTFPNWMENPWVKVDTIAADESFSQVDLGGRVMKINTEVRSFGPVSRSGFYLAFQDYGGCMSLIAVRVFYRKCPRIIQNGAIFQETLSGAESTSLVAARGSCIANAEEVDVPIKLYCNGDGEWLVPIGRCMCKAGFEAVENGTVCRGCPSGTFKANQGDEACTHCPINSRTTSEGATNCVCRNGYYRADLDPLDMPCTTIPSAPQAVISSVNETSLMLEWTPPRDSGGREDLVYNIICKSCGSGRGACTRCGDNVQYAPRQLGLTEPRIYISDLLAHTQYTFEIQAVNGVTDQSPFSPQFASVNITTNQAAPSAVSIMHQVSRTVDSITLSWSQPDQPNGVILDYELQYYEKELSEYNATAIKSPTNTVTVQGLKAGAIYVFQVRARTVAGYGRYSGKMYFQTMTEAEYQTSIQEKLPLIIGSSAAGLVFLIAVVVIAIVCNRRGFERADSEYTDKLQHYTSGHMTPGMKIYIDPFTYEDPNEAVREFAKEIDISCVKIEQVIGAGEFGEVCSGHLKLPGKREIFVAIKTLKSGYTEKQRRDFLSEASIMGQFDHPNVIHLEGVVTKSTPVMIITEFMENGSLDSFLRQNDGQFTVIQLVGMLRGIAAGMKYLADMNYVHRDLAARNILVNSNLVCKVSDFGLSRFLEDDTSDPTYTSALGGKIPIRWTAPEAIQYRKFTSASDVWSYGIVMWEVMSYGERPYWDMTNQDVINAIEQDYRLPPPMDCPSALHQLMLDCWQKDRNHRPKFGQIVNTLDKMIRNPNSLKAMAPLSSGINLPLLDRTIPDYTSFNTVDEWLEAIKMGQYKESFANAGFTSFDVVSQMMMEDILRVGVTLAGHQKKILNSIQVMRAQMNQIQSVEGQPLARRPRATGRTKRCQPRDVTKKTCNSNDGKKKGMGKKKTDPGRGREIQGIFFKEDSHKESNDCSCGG
# procedure.text: phosphorylation enrichment, bacterial display (enrichment ratio); higher = better substrate or ligand; peptides without Tyr show the background;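 further: 11-residue human phosphosite peptides and single-mutation variants displayed on the E. coli surface, counted by deep sequencing, each peptide's frequency after selection divided by its frequency in the unselected input library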;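 further: frequency after pTyr selection over input frequency; kinase dosed for 20-30% of maximal phosphorylation in three min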
Assign 1 (yes) to entries whose phosphorylation enrichment meets or exceeds 0.5; assign 0 (no) to the rest.

Example cases with answers are listed next.
sequence_content="MTFQNYRQALF [FAM20C_Y279_G280R]" class_name="1 (yes)"
sequence_content="SVVVPYEPPKV [TP53_Y220_E224K]" class_name="1 (yes)"
sequence_content="VECRVYAEDPY [PCCA_Y401]" class_name="1 (yes)"
sequence_content="FEPWVYSFSFE [PRKDC_Y647_YF]" class_name="1 (yes)"
sequence_content="FIRRDYEACKA [BBS4_Y48_K46R_YF]" class_name="1 (yes)"
sequence_content="EPGNLYIAKVE [CNTN4_Y180_T176P]" class_name="0 (no)"
sequence_content="YMLYQYLKQIE [RPAP3_Y569_D564Y]" class_name="1 (yes)"
sequence_content="INITIYGKTFR [EFHC1_Y177]" class_name="1 (yes)"
sequence_content="VAMDDYLKNVV [LRRK2_Y707_M712V]" class_name="1 (yes)"
sequence_content="NDLMEYPKQHG [ASS1_Y163_A164P]" class_name="0 (no)"

Kindly determine if phosphorylation enrichment recorded for SVVVPYEPPEI [TP53_Y220_V225I] is above or exactly 0.5.
1 (yes)

Kindly determine if phosphorylation enrichment recorded for RLLRGYDQFAY [HLA-C_Y137_S140F] is above or exactly 0.5.
0 (no)

Kindly determine if phosphorylation enrichment recorded for GVKLTYGDAQN [SLC28A1_Y404] is above or exactly 0.5.
0 (no)

Kindly determine if phosphorylation enrichment recorded for AIDVGYRLIDC [AKR1B1_Y40_H42L] is above or exactly 0.5.
0 (no)

Kindly determine if phosphorylation enrichment recorded for ETWHNYHKFDS [MATR3_Y243_S240W] is above or exactly 0.5.
1 (yes)

Kindly determine if phosphorylation enrichment recorded for EFEGLYQEGGG [TMEM159_Y159] is above or exactly 0.5.
1 (yes)

Kindly determine if phosphorylation enrichment recorded for QNRELYSEGLG [CNKSR1_Y665] is above or exactly 0.5.
0 (no)

Kindly determine if phosphorylation enrichment recorded for CDFKKYGKGLR [ZNF445_Y433_Y428C_YF] is above or exactly 0.5.
0 (no)
